# protocol.notes: Solubility (physicochemical properties)
# experimental.conditions: in water and n-hexane
measured.property: Solubility

Ask | Query Solubility for CCC1=C\C=C\C(CC)C(C(C)C(O)CC2(OC)CC(OC3CC(O)C(O)C(C)O3)C(CC)C(C)O2)OC(=O)/C=C/C(CC)=C/C=C/C(CC)C(C(C)C(O)CC2(O)CC(OC3CC(O)C(O)C(C)O3)C(CC)C(C)O2)OC(=O)\C=C\1 (centres unmarked) [bispolide A2]
Reply | insoluble

Ask | Query Solubility for CCC1=C\C=C\C(CC)C(C(C)C(O)CC2(OC)CC(OC3OC(C)C(O)C(O)C3O)C(CC)C(C)O2)OC(=O)/C=C/C(CC)=C/C=C/C(CC)C(C(C)C(O)CC2(OC)CC(OC3CC(O)C(O)C(C)O3)C(CC)C(C)O2)OC(=O)\C=C\1 (centres unmarked) [bispolide B3]
Reply | insoluble

---

# protocol.notes: Solubility (physicochemical properties)
# experimental.conditions: in 50% aqueous ethanol (ethanol:water 1:1 by volume)
measured.property: Solubility

Ask | Query Solubility for CCC1=C\C=C\C(CC)C(C(C)C(O)CC2(O)CC(OC3OC(C)C(O)C(O)C3O)C(CC)C(C)O2)OC(=O)/C=C/C(CC)=C/C=C/C(CC)C(C(C)C(O)CC2(O)CC(OC3CC(O)C(O)C(C)O3)C(CC)C(C)O2)OC(=O)\C=C\1 (stereo not shown) [bispolide B1]
Reply | sparingly soluble

Ask | Query Solubility for CCC1=C\C=C\C(CC)C(C(C)C(O)CC2(OC)CC(OC3CC(O)C(O)C(C)O3)C(CC)C(C)O2)OC(=O)/C=C/C(CC)=C/C=C/C(CC)C(C(C)C(O)CC2(O)CC(OC3OC(C)C(O)C(O)C3O)C(CC)C(C)O2)OC(=O)\C=C\1 (stereo not shown) [bispolide B2a]
Reply | sparingly soluble

Ask | Query Solubility for CCC1=C\C=C\C(CC)C(C(C)C(O)CC2(OC)CC(OC3OC(C)C(O)C(O)C3O)C(CC)C(C)O2)OC(=O)/C=C/C(CC)=C/C=C/C(CC)C(C(C)C(O)CC2(OC)CC(OC3CC(O)C(O)C(C)O3)C(CC)C(C)O2)OC(=O)\C=C\1 (stereo not shown) [bispolide B3]
Reply | sparingly soluble

---

# protocol.notes: Solubility (physicochemical properties)
# experimental.conditions: in methanol, ethanol, dimethylsulfoxide (DMSO), acetone and ethyl acetate
measured.property: Solubility

Ask | Query Solubility for CCC1=C\C=C\C(CC)C(C(C)C(O)CC2(OC)CC(OC3OC(C)C(O)C(O)C3O)C(CC)C(C)O2)OC(=O)/C=C/C(CC)=C/C=C/C(CC)C(C(C)C(O)CC2(OC)CC(OC3CC(O)C(O)C(C)O3)C(CC)C(C)O2)OC(=O)\C=C\1 (stereo not drawn) [bispolide B3]
Reply | Soluble well

Ask | Query Solubility for CCC1=C\C=C\C(CC)C(C(C)C(O)CC2(O)CC(OC3CC(O)C(O)C(C)O3)C(CC)C(C)O2)OC(=O)/C=C/C(CC)=C/C=C/C(CC)C(C(C)C(O)CC2(O)CC(OC3CC(O)C(O)C(C)O3)C(CC)C(C)O2)OC(=O)\C=C\1 (stereo not drawn) [bispolide A1]
Reply | Soluble well

Ask | Query Solubility for CCC1=C\C=C\C(CC)C(C(C)C(O)CC2(OC)CC(OC3CC(O)C(O)C(C)O3)C(CC)C(C)O2)OC(=O)/C=C/C(CC)=C/C=C/C(CC)C(C(C)C(O)CC2(O)CC(OC3CC(O)C(O)C(C)O3)C(CC)C(C)O2)OC(=O)\C=C\1 (stereo not drawn) [bispolide A2]
Reply | Soluble well
